Structures can show the parent of a compound that is named as a salt.
measurement_type: melting point

Input: Query: melting point; subject: Cc1noc([C@@H](Cc2ccccc2)NC(=O)[C@@H](Cc2ccc3ccccc3c2)NC(=O)c2cccc(CN)c2)n1 (as salt: salt)
Output: 240 to 241 °C

Input: Likewise for Cc1noc([C@@H](Cc2ccccc2)NC(=O)[C@@H](Cc2ccc3ccccc3c2)NC(=O)[C@@H]2CCCNC2)n1 (stereo in doubt) (as salt: salt) ?
Output: 198 to 200 °C

Input: Likewise for Cc1noc([C@@H](Cc2ccccc2)NC(=O)[C@@H](Cc2ccc3ccccc3c2)NC(=O)C2CCNCC2)n1 (stereo in doubt) (as salt: salt) ?
Output: 238 to 241 °C

Input: Likewise for Cc1noc([C@@H](Cc2ccccc2)NC(=O)C(Cc2ccc3ccccc3c2)NC(=O)/C=C/C(C)(C)N)n1 (stereo in doubt) (as salt: salt) ?
Output: 161 to 167 °C

Hey, just so you know, these numbers are from patent US6350767B1.
